Assay: Half life in CD-1 mouse at 0.2 mg/kg, iv and measured upto 24 hrs
Assay type: ADME, organism-based
Settings: in vivo
measured endpoint: half-life (h)
Number only, in h; omit the unit.

Problem: Which half-life reading was recorded for the compound "Cn1cc(-c2ccc(CNc3cc(-c4cnc5cc(OCCCN6CCCC6)ccn45)ncn3)cc2)cn1" ?
Result: 6.9

###

Assay: Metabolic stability in mouse liver microsomes assessed as intrinsic clearance in presence of NADPH by UPLC analysis
Type: ADME, Microsome
Conditions: read-out: CLH
measured endpoint: microsomal CLint

Problem: Which microsomal CLint reading was recorded for the molecule "COc1ccn2c(-c3cc(NCc4ccc(-c5ccccc5)cc4)ncn3)cnc2c1" ?
Result: < 10 µL/min/mg

Problem: Please do the same for "c1ccc(-c2ccc(CNc3ccnc(-c4cnc5ccccn45)n3)cc2)cc1" as well.
Result: 10 µL/min/mg

Problem: Please do the same for "c1ccn2c(-c3cncc(NCc4ccc(N5CCCC5)nc4)c3)cnc2c1" as well.
Result: > 75 µL/min/mg

Problem: Please do the same for "c1ccc2ncc(CNc3cncc(-c4cnc5ccccn45)c3)cc2c1" as well.
Result: 10 µL/min/mg

Problem: Please do the same for "c1ccn2c(-c3nccc(NCC4CCN(C5CCCC5)CC4)n3)cnc2c1" as well.
Result: > 75 µL/min/mg

Problem: Please do the same for "COc1ccn2c(-c3cc(NCc4ccc(-c5cnn(C)c5)cc4)ncn3)cnc2c1" as well.
Result: < 10 µL/min/mg

Problem: Please do the same for "COCCOc1ccn2c(-c3cncc(NCc4ccc(N5CCCC5)nc4)c3)cnc2c1" as well.
Result: > 75 µL/min/mg

Problem: Please do the same for "COc1ccn2c(-c3cncc(NCc4ccc(N5CCCC5)nc4)c3)cnc2c1" as well.
Result: > 75 µL/min/mg

Problem: Please do the same for CC(Nc1cncc(-c2cnc3ccccn23)c1)c1ccc(N2CCCC2)nc1 (configuration not stated) as well.
Result: > 75 µL/min/mg

Problem: Please do the same for "CN1CCN(CCOc2ccn3c(-c4cncc(NCc5ccc(N6CCCC6)nc5)c4)cnc3c2)CC1" as well.
Result: > 75 µL/min/mg

Problem: Please do the same for "COCCOc1ccn2c(-c3cc(NCc4ccc(-c5cnn(C)c5)cc4)ncn3)cnc2c1" as well.
Result: > 75 µL/min/mg

Problem: Please do the same for "c1ccn2c(-c3cc(NCc4ccc(N5CCCC5)nc4)ncn3)cnc2c1" as well.
Result: > 75 µL/min/mg

###

Test: Plasma clearance in Beagle dog at 0.2 mg/kg, iv and measured upto 24 hrs
Type: ADME, organism-based, Canis lupus familiaris
measured endpoint: clearance

Problem: Which clearance reading was recorded for the molecule "Cn1cc(-c2ccc(CNc3cc(-c4cnc5cc(OCCCN6CCCC6)ccn45)ncn3)cc2)cn1" ?
Result: 36.7 mL/min/kg

###

Assay: Efflux ratio of apparent permeability from basolateral to apical side over apical to basolateral side in human Caco-2 cells at 1 uM and measured after 2 hrs by LC-MS/MS analysis
Assay type: ADME, cell-based
measured endpoint: efflux ratio at 2 h, 1 µM
Response field accepts a number only; no unit should be typed.

Problem: Which efflux ratio at 2 h, 1 µM reading was recorded for the compound "Cn1cc(-c2ccc(CNc3cc(-c4cnc5cc(OCCN6CCC(C)(C#N)CC6)ccn45)ncn3)cc2)cn1" ?
Result: 4.7

Problem: Please do the same for "COCCOc1ccn2c(-c3cc(NCc4ccc(-c5cnn(C)n5)cc4)ncn3)cnc2c1" as well.
Result: 0.8

Problem: Please do the same for "Cn1cc(-c2ccc(CNc3cc(-c4cnc5cc(OCCN6CCn7nncc7C6)ccn45)ncn3)cc2)cn1" as well.
Result: 18

Problem: Please do the same for "Cn1cc(-c2ccc(CNc3cc(-c4cnc5cc(OCCCN6CCC(C)(F)CC6)ccn45)ncn3)cc2)cn1" as well.
Result: 1.3
